Documented pest or weed control at 500 g/ha across a set of molecules
# Tested on: Kochia (Kochia scoparia)
# protocol-notes: Test A postemergence
# Type: in vivo
# condition-details: Bassia scoparia, post-emergence, 240 h, 500 g ai/ha, postemergence; 0 to 100 scale, 0 is no effect, 100 is complete control; read-out: Kochia plant response rating
Quote the value and follow it with the unit of measurement.

{"columns": ["molecule", "pest or weed control at 500 g/ha"],
 "data": [
  ["CN1C[C@H](c2ccc(C#N)cc2)[C@@H](C(=O)Nc2ccc(F)c(F)c2F)C1=O [Compound 1229]", "80%"],
  ["Cc1cc([C@H]2CN(C)C(=O)[C@@H]2C(=O)Nc2ccccc2F)no1 [Compound 1194]", "0%"],
  ["COc1cc(C(F)(F)F)ccc1[C@H]1CNC(=O)[C@@H]1C(=O)Nc1cccc(F)c1F [Compound 1203]", "60%"]
]}

Now look at this one.
Lab note: measured pest or weed control at 500 g/ha of COc1ccc([C@H]2CN(C)C(=O)[C@@H]2C(=O)Nc2ccccc2SC)c(OC)c1 [Compound 1216] was 40%

###

# Tested on: barnyardgrass (Echinochloa crus-galli)
# protocol-notes: Test G Post-Emergence Protocol
# Format: in vivo
# condition-details: Echinochloa crus-galli, post-emergence, 312 h, 250 g ai/ha, evaluated after 13 days, read-out: damage to plant, Barnyardgrass (100=total damage to plant; 0=no damage to plant)
Documented pest or weed control at 250 g/ha across a set of compounds
Provide only the numeric value, understood in %.

{"columns": ["compound", "tested-target", "pest or weed control at 250 g/ha, %"],
 "data": [
  ["CN1C[C@H](c2ccc(C(C)(C)C)cc2)[C@@H](C(=O)Nc2ccccc2F)C1=O (racemic)", "barnyardgrass (Echinochloa crus-galli)", 30],
  ["CN1C[C@@H](c2ccc(C(F)(F)F)cc2)[C@H](C(=O)Nc2ccsc2)C1=O (racemic)", "barnyardgrass (Echinochloa crus-galli)", 0],
  ["COc1cccc(NC(=O)[C@H]2C(=O)N(C)C[C@@H]2c2ccc(C(F)(F)F)cc2)c1C (racemic)", "barnyardgrass (Echinochloa crus-galli)", 0]
]}

Now look at this one.
Entry CCc1nnc(NC(=O)[C@@H]2C(=O)N(C)C[C@H]2c2ccc(C(F)(F)F)cc2)s1 (racemic) : pest or weed control at 250 g/ha on barnyardgrass (Echinochloa crus-galli) = 20

###

# Tested on: giant foxtail (Setaria faberii)
# protocol-notes: Test A preemergence
# Format: in vivo
# condition-details: Setaria faberi, pre-emergence, 240 h, 125 g ai/ha, preemergence; 0 to 100 scale where 0 is no effect and 100 is complete control; read-out: Foxtail, Giant plant response rating
result-type: pest or weed control at 125 g/ha (%)
Provide only the numeric value, understood in %.

Example entries begin here.
{"columns": ["molecule", "reading-unit", "pest or weed control at 125 g/ha"],
 "data": [
  ["Cc1c(F)ccc([C@H]2CNC(=O)[C@@H]2C(=O)Nc2ccccc2S(C)(=O)=O)c1F", "%", 0],
  ["Cc1cc(C)cc([C@H]2CNC(=O)[C@@H]2C(=O)Nc2ccccc2F)c1", "%", 80],
  ["Cc1c(F)ccc([C@H]2CNC(=O)[C@@H]2C(=O)Nc2ccc(F)c(F)c2F)c1F", "%", 90]
]}

Entry `CN1C[C@H](c2cc(F)cc(F)c2)[C@@H](C(=O)Nc2ccc(C(F)(F)F)cn2)C1=O` : pest or weed control at 125 g/ha on giant foxtail (Setaria faberii) = 90

Entry `CS(=O)(=O)c1ccccc1NC(=O)[C@H]1C(=O)N(C2CC2)CC[C@@H]1c1cccc(C(F)(F)F)c1` : pest or weed control at 125 g/ha on giant foxtail (Setaria faberii) = 0

Entry `Cc1cc(C)cc([C@H]2CN(C)C(=O)[C@@H]2C(=O)Nc2cccc(F)c2F)c1` : pest or weed control at 125 g/ha on giant foxtail (Setaria faberii) = 90

Entry `CN1CC[C@H](c2cccc(Cl)c2)[C@@H](C(=O)Nc2cccc(Cl)c2F)C1=O` : pest or weed control at 125 g/ha on giant foxtail (Setaria faberii) = 90
